- measurement target: HLA-B*27:03
- test name: IEDB peptide-MHC binding, purified MHC/direct/fluorescence; filed as Kd, often an IC50 or EC50 that approximates it; bounds were set here for any values at or beyond the usual limits of such assays
- particulars: source organism: Yersinia pestis CA88-4125
pKd: −log10 of the molar value.
readout: pKd

Supply measured pKd of "LPEAYQWHI" in your reply. ≤ 4.70

====

- measurement target: HLA-A*02:16
- test name: IEDB peptide-MHC binding, purified MHC/competitive/fluorescence; filed as Kd, often an IC50 or EC50 that approximates it; bounds were set here for any values at or beyond the usual limits of such assays
- particulars: source organism: Cryptosporidium parvum Iowa II
readout: Kd

Supply measured Kd of "KLYLRPWWH" in your reply. ≥ 20 µM

====

- measurement target: HLA-A*68:02
- test name: IEDB peptide-MHC binding, purified MHC/direct/fluorescence; filed as Kd, often an IC50 or EC50 that approximates it; bounds were set here for any values at or beyond the usual limits of such assays
- particulars: source organism: Orthohantavirus andesense
Consider the following sequences and their measured Kd readings.

AVEDFLAFF
≥ 20 µM

Okay, next one:
Enter recorded Kd with HLA-A*68:02 for "DAVEDFLAF" here. ≥ 20 µM

====

- measurement target: HLA-B*27:05
- test name: IEDB peptide-MHC binding, purified MHC/direct/fluorescence; filed as Kd, often an IC50 or EC50 that approximates it; bounds were set here for any values at or beyond the usual limits of such assays
- particulars: source organism: Brucella melitensis
readout: pKd
// pKd is dimensionless: -log10 of concentration (M)

Enter recorded pKd with HLA-B*27:05 for "KRASGDPYF" here. 5.55

====

- measurement target: HLA-A*01:01
- test name: IEDB peptide-MHC binding, purified MHC/competitive/fluorescence; bounds were set here for any values at or beyond the usual limits of such assays
- particulars: source organism: Variola virus
readout: IC50
Answer format: value, then unit.

Supply measured IC50 of "RVNPGTYVY" in your reply. 10.3 µM

====

- measurement target: HLA-B*53:01
- test name: IEDB peptide-MHC binding, purified MHC/competitive/fluorescence; bounds were set here for any values at or beyond the usual limits of such assays
- particulars: source organism: Homo sapiens
readout: IC50

Supply measured IC50 of "MVRVLTVIKEY" in your reply. ≥ 20 µM

====

- measurement target: HLA-A*68:02
- test name: IEDB peptide-MHC binding, purified MHC/competitive/radioactivity; filed as Kd, often an IC50 or EC50 that approximates it; bounds were set here for any values at or beyond the usual limits of such assays
- particulars: source organism: Hepacivirus hominis
readout: Kd

Supply measured Kd of "KLRGMGFNAV" in your reply. ≥ 40.6 µM

====

- measurement target: HLA-A*02:06
- test name: IEDB peptide-MHC binding, purified MHC/competitive/radioactivity; filed as Kd, often an IC50 or EC50 that approximates it; bounds were set here for any values at or beyond the usual limits of such assays
- particulars: source organism: Dengue virus 3 Martinique/1243/1999
readout: Kd (µM)
Give the value, in units of µM, as a plain number.

Supply measured Kd of "IVLEFFMMVL" in your reply. 0.107

====

- measurement target: HLA-C*03:03
- test name: IEDB peptide-MHC binding, purified MHC/direct/fluorescence; filed as Kd, often an IC50 or EC50 that approximates it; bounds were set here for any values at or beyond the usual limits of such assays
- particulars: source organism: Escherichia coli O157:H7 str. EDL933
readout: pKd
// pKd is dimensionless: -log10 of concentration (M)

Supply measured pKd of "YVLNGYTEF" in your reply. 7.22
